Molecular target: Alpha-bungarotoxin (Bungarus multicinctus) (UniProt P60615)
Sequence (P60615 whole entry, looked up): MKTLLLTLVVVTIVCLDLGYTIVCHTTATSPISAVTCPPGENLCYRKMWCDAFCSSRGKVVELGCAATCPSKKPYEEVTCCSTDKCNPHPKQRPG
Experiment: alpha-bungarotoxin binders on microarray, profiling panel, artefact control for SMM control protein annotation, biochemical, small-molecule microarray, Alexa647 label, 635/667 nm fluorescence (AID 1117)
Details: alpha-BTX-A647 binding fluorescence, higher = more signal

{"molecule": "CCCC=C(CCC)[C@@H](NC(=O)c1ccccc1)c1ccc(C(=O)OC)cc1", "composite z-score": 0.303}
{"molecule": "C=CCC(OC(C)=O)[C@@H]1[C@@H](N(Cc2ccc(-c3cccc(C(F)(F)F)c3)o2)C(=O)Cc2ccc(F)cc2)c2cc(OCCCO)ccc2N1C(=O)c1ccc2ccccc2n1 (some centres undefined)", "composite z-score": -0.124}
{"molecule": "O=C1C2C=CC(C(O)c3cccc(O)c3)N(Nc3ccccc3F)C2C(=O)N1c1ccccc1 (centres undefined)", "composite z-score": -0.234}
{"molecule": "CCCCNC(=O)c1ccc(C#C[Si](C)(C)C)c(OC(C)=O)c1", "composite z-score": 0.25}
{"molecule": "COc1ccc([Si](C)(C)[C@H]2[C@H](CCO)O[C@@]3(C(=O)N(Cc4ccccc4)c4ccc(N(C=O)c5ccccc5)cc43)[C@@H]2C)cc1", "composite z-score": 0.0701}
{"molecule": "C[C@H]1NC(=O)C([C@@H](C)OCc2ccccc2)NC(=O)[C@@]23C(=O)N[C@@H](Cc4ccccc4)C2[C@H](C)[C@@]2(C)O[C@H]2C3/C=C/C/C=C\\CNC1=O (some centres undefined)", "composite z-score": 0.21}
{"molecule": "Cc1ccc(S[C@]2(C(=O)NCCN3CCOCC3)CC(=O)N(C3CCCCC3)[C@@H]2c2ccc(CO)cc2I)cc1", "composite z-score": 1.23}
{"molecule": "COCCCNC(=O)[C@@H]1c2ccccc2C(=O)N(C2CCCCC2)[C@H]1c1ccc(CO)cc1", "composite z-score": -1.08}
{"molecule": "N#Cc1ccc(C(O)C2C=CC3C(=O)NC(=O)C3N2Nc2ccccn2)cc1 (centres undefined)", "composite z-score": 0.617}
